# credit: patent US8530470B2

target: PI3Kβ (Homo sapiens); assay: In vitro enzyme inhibition assay (Kinase Glo), PI3Kβ; type: biochemical; details: Test (a); human recombinant enzyme; ATP 8 μM, PIP2 80 μM; Table A; read-out: PI3Kβ inhibition, IC50
Sequence (P42338 whole entry): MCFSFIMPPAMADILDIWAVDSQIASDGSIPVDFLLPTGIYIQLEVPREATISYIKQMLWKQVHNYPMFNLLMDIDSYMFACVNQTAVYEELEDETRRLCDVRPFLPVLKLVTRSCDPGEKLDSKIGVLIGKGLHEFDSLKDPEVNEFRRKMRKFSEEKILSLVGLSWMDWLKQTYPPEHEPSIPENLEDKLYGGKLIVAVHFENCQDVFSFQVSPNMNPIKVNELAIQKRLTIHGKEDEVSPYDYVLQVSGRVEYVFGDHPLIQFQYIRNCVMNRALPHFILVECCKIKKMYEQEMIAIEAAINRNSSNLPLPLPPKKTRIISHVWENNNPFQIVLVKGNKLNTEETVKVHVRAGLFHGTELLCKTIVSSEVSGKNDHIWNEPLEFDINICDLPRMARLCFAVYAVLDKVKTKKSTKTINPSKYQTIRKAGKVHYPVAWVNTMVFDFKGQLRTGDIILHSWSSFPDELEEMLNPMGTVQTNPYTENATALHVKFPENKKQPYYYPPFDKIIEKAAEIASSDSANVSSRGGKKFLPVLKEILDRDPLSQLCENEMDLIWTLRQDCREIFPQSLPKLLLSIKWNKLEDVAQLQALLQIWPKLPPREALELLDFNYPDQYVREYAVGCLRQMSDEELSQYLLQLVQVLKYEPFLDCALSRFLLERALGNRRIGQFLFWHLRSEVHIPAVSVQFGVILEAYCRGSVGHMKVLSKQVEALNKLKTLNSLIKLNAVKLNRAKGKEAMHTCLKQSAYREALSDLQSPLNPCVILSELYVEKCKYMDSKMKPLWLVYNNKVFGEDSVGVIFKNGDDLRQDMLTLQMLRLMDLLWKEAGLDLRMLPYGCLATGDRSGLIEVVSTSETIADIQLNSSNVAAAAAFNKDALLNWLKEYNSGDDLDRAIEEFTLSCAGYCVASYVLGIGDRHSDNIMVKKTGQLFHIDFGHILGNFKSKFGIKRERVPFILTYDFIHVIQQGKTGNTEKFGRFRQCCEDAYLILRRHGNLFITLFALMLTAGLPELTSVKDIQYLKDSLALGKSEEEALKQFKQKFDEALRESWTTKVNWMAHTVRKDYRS
Sequence (P27986 whole entry partner): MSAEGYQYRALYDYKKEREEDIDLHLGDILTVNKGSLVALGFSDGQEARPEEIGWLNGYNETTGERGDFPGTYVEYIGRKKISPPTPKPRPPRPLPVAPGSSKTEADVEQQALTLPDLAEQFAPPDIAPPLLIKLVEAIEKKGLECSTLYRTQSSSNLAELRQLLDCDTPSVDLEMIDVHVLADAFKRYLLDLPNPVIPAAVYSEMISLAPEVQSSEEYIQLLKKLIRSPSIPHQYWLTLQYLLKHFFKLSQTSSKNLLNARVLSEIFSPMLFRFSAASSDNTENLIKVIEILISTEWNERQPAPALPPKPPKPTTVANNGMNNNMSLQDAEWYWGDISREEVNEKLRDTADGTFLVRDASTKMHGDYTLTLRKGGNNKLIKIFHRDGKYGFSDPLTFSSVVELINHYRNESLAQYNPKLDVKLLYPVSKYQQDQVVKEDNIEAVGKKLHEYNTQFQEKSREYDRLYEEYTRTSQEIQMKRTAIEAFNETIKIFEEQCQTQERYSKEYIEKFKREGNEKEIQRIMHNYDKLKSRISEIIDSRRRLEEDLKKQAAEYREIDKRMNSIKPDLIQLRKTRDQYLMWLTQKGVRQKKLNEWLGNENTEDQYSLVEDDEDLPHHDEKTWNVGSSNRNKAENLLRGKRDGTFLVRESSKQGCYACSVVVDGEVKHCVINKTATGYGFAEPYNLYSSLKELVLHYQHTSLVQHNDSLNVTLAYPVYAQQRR
pIC50: −log10 of the molar value.
Quantity Name: pIC50

>>> readout_number("O=C(c1cc([C@H]2CCCN2c2cccc(F)c2)c2oc(N3CCOCC3)cc(=O)c2c1)N1CCC1 [Example 1.08]")
8.22
>>> readout_number("CN(C)C(=O)c1cc(C2CCCN2c2cc(F)cc(C#N)c2)c2oc(N3CCOCC3)cc(=O)c2c1 (stereo not shown) [Example 2.02]")
7.89
>>> readout_number("CN(C)C(=O)c1cc(C2CCCN2c2ccc(F)cc2)c2oc(N3CCOCC3)cc(=O)c2c1 (racemic) [Example 2.04]")
7.77
>>> readout_number("O=C(c1cc([C@H]2CCCN2c2cc(F)cc(F)c2)c2oc(N3CCOCC3)cc(=O)c2c1)N1CCOCC1 [Example 1.03b]")
8.15
>>> readout_number("O=C(c1cc([C@H]2CCCN2c2cccc(F)c2)c2oc(N3CCOCC3)cc(=O)c2c1)N1CCOCC1 [Example 1.07]")
8.22
>>> readout_number("COc1cccc(N2CCC[C@@H]2c2cc(C(=O)N3CCOCC3)cc3c(=O)cc(N4CCOCC4)oc23)c1 [Example 1.11]")
8.05
>>> readout_number("CN1CCN(C(=O)c2cc([C@H]3CCCN3c3cccc(F)c3)c3oc(N4CCOCC4)cc(=O)c3c2)CC1 [Example 1.10]")
8.10
